The origin of these recorded values is patent US12312347B2.

# Protocol Summary: Pharmacokinetic evaluation in mice (IV and PO)
# Type: in vivo, male CD-1 mice
# Assay Setup: male, CD-1, mouse, plasma, PO 10 mg/kg
# Method: Experimental Procedure: 0.4 mg/mL clear solution of the test compounds in a specific menstruum was injected intravenously into male CD-1 nude mice (overnight fasting, aged 7-9 weeks) via caudal vein at a dose of 2 mg/kg. About 30 μL of blood was collected from jugular or caudal vein at 0.0833, 0.25, 0.5, 1.0, 2.0, 4.0, 8.0 and 24 h after intravenous administration. […]
Property Label: AUC(0-t) (µM·h)

1. COc1cc(OC)c(F)c(Cc2c[nH]c3ncc(-c4cnn(CCO)c4)cc23)c1F
2. COc1nc(OC)c(F)c(Cc2c[nH]c3ncc(-c4cnn(CCO)c4)cc23)c1F
## Input # query: argmin of AUC(0-t) over 1 and 2 Selection: enter the item's label.
## Output 2
